# assay remarks: Henry solubility constant Hcp at 298.15 K (mol/(m3 Pa))
# condition context: reference: Wetlaufer et al. (1964)
endpoint label: Henry solubility constant Hcp
Reply with just the number.

Examples with their reported Henry solubility constant Hcp follow.
[
  {
    "smi": "Cc1c[nH]c2ccccc12",
    "data value": "2.9e-05"
  },
  {
    "smi": "CC(C)C",
    "data value": "9.9e-06"
  },
  {
    "smi": "CC(C)(C)C",
    "data value": "6.3e-06"
  }
]

Lookup: Entry CCCC : reported Henry solubility constant Hcp = ?
Found: 1.3e-05

---

# assay remarks: Henry solubility constant Hcp at 298.15 K (mol/(m3 Pa))
# condition context: reference: Souchon et al. (2004)
endpoint label: Henry solubility constant Hcp
Output: the number by itself.

[
  {
    "molecule": "CCCCCCOC(C)=O [hexyl ethanoate]",
    "Henry solubility constant Hcp": 0.014
  },
  {
    "molecule": "CCCC(=O)OCC [ethyl butanoate]",
    "Henry solubility constant Hcp": 0.026
  },
  {
    "molecule": "CCCCCCO",
    "Henry solubility constant Hcp": 0.38
  },
  {
    "molecule": "CSSSC",
    "Henry solubility constant Hcp": 0.014
  },
  {
    "molecule": "CCCCCCC=O",
    "Henry solubility constant Hcp": 0.035
  }
]

Lookup: State the recorded Henry solubility constant Hcp for this entry: O=Cc1ccccc1
Found: 0.34

Lookup: Can you share its Henry solubility constant Hcp? I mean this molecule: C=CCN=C=S [allyl isothiocyanate]
Found: 0.021

Lookup: Requested read-out: Henry solubility constant Hcp. Entry: CCCC(=O)SC [S-methyl butanethioate]
Found: 0.026

---

# assay remarks: Henry solubility constant Hcp at 298.15 K (mol/(m3 Pa))
# condition context: reference: De Bruyn et al. (1995b)
endpoint label: Henry solubility constant Hcp
No unit in the answer, only the number.

[
  {
    "compound": "S=C=S [carbon disulfide]",
    "data value": 0.00054
  },
  {
    "compound": "CS [methanethiol]",
    "data value": 0.002
  },
  {
    "compound": "O=C=S [carbon oxide sulfide]",
    "data value": 0.00022
  }
]

Please turn your attention to the following entry.
Lookup: Recorded Henry solubility constant Hcp of CSC [dimethyl sulfide] , please.
Found: 0.0047

---

compounds and their reported Henry solubility constant Hcp
# assay remarks: Henry solubility constant Hcp at 298.15 K (mol/(m3 Pa))
# condition context: reference: Ashton et al. (1968)
# print the numeric value only

See these solved cases before continuing.
[
  {
    "compound": "FC(F)(F)F [tetrafluoromethane]",
    "Henry solubility constant Hcp": "2.1e-06"
  },
  {
    "compound": "[Ar] [argon]",
    "Henry solubility constant Hcp": "1.4e-05"
  },
  {
    "compound": "FS(F)(F)(F)(F)F [sulfur hexafluoride]",
    "Henry solubility constant Hcp": "2.4e-06"
  }
]

Next:
Lookup: // Henry solubility constant Hcp lookup, key: FN(F)F [nitrogen trifluoride]
Found: 7.8e-06

---

# assay remarks: Henry solubility constant Hcp at 298.15 K (mol/(m3 Pa))
# condition context: reference: Peng and Wan (1998)
Form field: Henry solubility constant Hcp (one value per entry).
Please respond with just the number, no unit label.

Lookup: Which Henry solubility constant Hcp value belongs to c1ccccc1 [benzene] ?
Found: 0.0022

Lookup: Item under review: Cc1ccccc1 [methylbenzene] . Reported Henry solubility constant Hcp?
Found: 0.0021

Lookup: # query: Henry solubility constant Hcp of entry ClC=C(Cl)Cl [trichloroethene]
Found: 0.0014

Lookup: Bench note: what Henry solubility constant Hcp did ClC(Cl)=C(Cl)Cl [tetrachloroethene] show?
Found: 0.00078

---

# assay remarks: Henry solubility constant Hcp at 298.15 K (mol/(m3 Pa))
# condition context: reference: Lei et al. (2004)
endpoint label: Henry solubility constant Hcp

Below: 5 compounds and their reported Henry solubility constant Hcp.
[
  {
    "smi": "c1ccccc1",
    "Henry solubility constant Hcp": 0.0014
  },
  {
    "smi": "Cc1ccccc1",
    "Henry solubility constant Hcp": 0.0014
  },
  {
    "smi": "Clc1ccccc1",
    "Henry solubility constant Hcp": 0.0015
  },
  {
    "smi": "OCCC(F)(F)C(F)(F)C(F)(F)C(F)(F)C(F)(F)C(F)(F)F",
    "Henry solubility constant Hcp": "8.5e-05"
  },
  {
    "smi": "OCCC(F)(F)C(F)(F)C(F)(F)C(F)(F)C(F)(F)C(F)(F)C(F)(F)C(F)(F)F",
    "Henry solubility constant Hcp": 0.00017
  }
]

Let us examine a further case.
Lookup: Fill blank: measured Henry solubility constant Hcp of the compound OCCC(F)(F)C(F)(F)C(F)(F)C(F)(F)F is ____.
Found: 6.1e-05

---

# assay remarks: Henry solubility constant Hcp at 298.15 K (mol/(m3 Pa))
# condition context: reference: Hauff et al. (1998)
compounds and their reported Henry solubility constant Hcp
Write the number on its own, no unit after it.

Lookup: For the compound CCCCCO[N+](=O)[O-] [1-pentyl nitrate] , what Henry solubility constant Hcp is on record?
Found: 0.0066

Lookup: Consider the compound CC(C)CCO[N+](=O)[O-] [3-methyl-1-butanol nitrate] and give its measured Henry solubility constant Hcp.
Found: 0.005

Lookup: Param item = CCC(C)O[N+](=O)[O-] (configuration not stated) [2-butyl nitrate] ; retrieve measured Henry solubility constant Hcp.
Found: 0.0044

Lookup: Bench note: what Henry solubility constant Hcp did CCCCO[N+](=O)[O-] [1-butyl nitrate] show?
Found: 0.0063

Lookup: Value lookup for Henry solubility constant Hcp; key = CCCCCCO[N+](=O)[O-] [1-hexyl nitrate]
Found: 0.0076

Lookup: Request the reported Henry solubility constant Hcp associated with CCCC(C)O[N+](=O)[O-] (configuration not stated) [2-pentyl nitrate]
Found: 0.0037

Lookup: Any idea what Henry solubility constant Hcp was measured for CCC(CC)O[N+](=O)[O-] [3-pentyl nitrate] ?
Found: 0.0038

---

# assay remarks: Henry solubility constant Hcp at 298.15 K (mol/(m3 Pa))
# condition context: reference: Munz and Roberts (1987)
Catalogue of Henry solubility constant Hcp values

[
  {
    "smi": "ClC(Cl)(Cl)C(Cl)(Cl)Cl",
    "Henry solubility constant Hcp": 0.0025
  },
  {
    "smi": "FC(F)(Cl)Cl",
    "Henry solubility constant Hcp": "3.1e-05"
  }
]

Lookup: Entry under review: ClC(Cl)(Cl)Cl . Reported Henry solubility constant Hcp?
Found: 0.00033

Lookup: Please look up its Henry solubility constant Hcp: ClC=C(Cl)Cl
Found: 0.00096

Lookup: Consider the molecule CC(Cl)(Cl)Cl and give its measured Henry solubility constant Hcp.
Found: 0.00058

Lookup: What value of measured Henry solubility constant Hcp is listed for ClC(Cl)=C(Cl)Cl ?
Found: 0.00054

Lookup: Requested read-out: Henry solubility constant Hcp. Entry: BrC(Br)Br
Found: 0.018

---

# assay remarks: Henry solubility constant Hcp at 298.15 K (mol/(m3 Pa))
# condition context: reference: Cosgrove and Walkley (1981)
Here the recorded Henry solubility constant Hcp is given for each entry.
Respond numerically, and do not add a unit to the figure.

Some solved entries appear below for comparison.
[
  {
    "compound": "O=O",
    "data value": "1.3e-05"
  },
  {
    "compound": "FC(F)(F)F",
    "data value": "2.1e-06"
  },
  {
    "compound": "[Kr]",
    "data value": "2.6e-05"
  },
  {
    "compound": "FS(F)(F)(F)(F)F [sulfur hexafluoride]",
    "data value": "2.5e-06"
  }
]

Field: next compound
Lookup: For the compound [Ar] , what Henry solubility constant Hcp is on record?
Found: 1.4e-05

---

# assay remarks: Henry solubility constant Hcp at 298.15 K (mol/(m3 Pa))
# condition context: reference: Schuhfried et al. (2011)
endpoint label: Henry solubility constant Hcp
No unit in the answer, only the number.

As a guide, the following entries are already answered.
[
  {
    "compound": "C=CCSC [allyl methyl sulfide]",
    "endpoint label": "Henry solubility constant Hcp",
    "data value": 0.0042
  },
  {
    "compound": "CCSC [ethyl methyl sulfide]",
    "endpoint label": "Henry solubility constant Hcp",
    "data value": 0.0042
  },
  {
    "compound": "CCSSCC [diethyl disulfide]",
    "endpoint label": "Henry solubility constant Hcp",
    "data value": 0.0037
  }
]

Lookup: Consider the compound shown here: CSC [dimethyl sulfide] What is its recorded Henry solubility constant Hcp?
Found: 0.0046

Lookup: Which Henry solubility constant Hcp value belongs to CCCSSCCC [dipropyl disulfide] ?
Found: 0.0024

Lookup: Which measured Henry solubility constant Hcp value corresponds to CCSCC [diethyl sulfide] ?
Found: 0.0035

meta.source: Sander's compilation of Henry's law constants
